Origin of measurements: PubChem BioAssay

Let's look at some molecules and their measured inhibition.
Molecular target: PEG-3 (UniProt Q6IN02)
Sequence (Q6IN02 whole entry, looked up): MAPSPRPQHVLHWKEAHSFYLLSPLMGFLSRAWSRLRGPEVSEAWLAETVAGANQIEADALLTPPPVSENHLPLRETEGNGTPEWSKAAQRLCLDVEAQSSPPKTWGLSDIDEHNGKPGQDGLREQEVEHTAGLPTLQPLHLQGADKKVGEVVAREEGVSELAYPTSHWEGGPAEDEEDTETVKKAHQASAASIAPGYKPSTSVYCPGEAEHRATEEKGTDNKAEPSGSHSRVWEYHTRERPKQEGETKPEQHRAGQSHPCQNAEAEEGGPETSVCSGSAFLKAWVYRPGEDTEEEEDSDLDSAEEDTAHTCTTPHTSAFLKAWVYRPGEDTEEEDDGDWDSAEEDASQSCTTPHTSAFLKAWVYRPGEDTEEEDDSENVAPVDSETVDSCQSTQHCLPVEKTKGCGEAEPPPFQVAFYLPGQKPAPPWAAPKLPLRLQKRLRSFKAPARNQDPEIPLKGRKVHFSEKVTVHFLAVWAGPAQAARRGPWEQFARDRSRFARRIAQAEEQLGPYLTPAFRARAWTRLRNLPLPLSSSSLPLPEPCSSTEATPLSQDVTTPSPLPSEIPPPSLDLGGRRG
Assay: Peg3 promoter luciferase inhibitors, potency, dose response, cell-based, HeLa, CREF/GAPDH counter-screen panel (AID 624167)
Details: CREF/GAPDH counter-screens; HeLa PEG-Prom luciferase reporter, overnight, run 2, dose range 1, at 100 µM (top of the series) unless noted
Only the number, expressed in %, is required.

Enquiry: Given O=C(NC1=NCCS1)C1COc2ccccc2O1 (stereo not drawn) , state its recorded inhibition.
Return: 97.6

Enquiry: Given "CS(=O)(=O)c1ccc(-c2sc3ccccc3c2C#CCCO)cc1" , state its recorded inhibition.
Return: 97.9

Enquiry: Given "Cc1cc(C=C2C(=O)c3ccccc3C2=O)c(C)n1-c1ccccc1" , state its recorded inhibition.
Return: 80.6

Enquiry: Given "Cc1cc(C)cc(NC(=O)Cn2c(=O)oc3cc(S(=O)(=O)N4CCC(C)CC4)ccc32)c1" , state its recorded inhibition.
Return: 47.7

Enquiry: Given "CCCCCCSc1cc(-c2nc3ccc(C)cn3c2NCCCC)ccc1OC" , state its recorded inhibition.
Return: 101
